Test system: EPHA1
Settings: concentration: 1 μM, replicates: in singlicate; n = 1;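 further: KINOMEscan kinase panel screen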

>  <COMPOUND_STRING>
Cc1ccc(C)c(NC(=O)NCCNc2ccnc(Nc3ccc(F)cc3)n2)c1

>  <%Inh [%]>
6

$$$$
>  <COMPOUND_STRING>
COc1ccc(NC(=O)Nc2ccc(C)c(-c3ccc(C(=O)Nc4ccncc4)cc3)c2)cc1

>  <%Inh [%]>
6

$$$$
>  <COMPOUND_STRING>
Cc1ccc(O)cc1Nc1cc(C(F)(F)F)nc2ccc(-c3ccncc3)cc12

>  <%Inh [%]>
6

$$$$

* * *

Test system: JAK2(JH1domain-catalytic)
Settings: concentration: 1 μM, replicates: in singlicate; n = 1
The threshold is inclusive: %Inh of exactly 2% counts as satisfied; values below receive not satisfied.

>  <COMPOUND>
Nc1nc(-c2ccc3c(N)n[nH]c3c2)cc(N2CCC[C@@H](C(=O)Nc3ccccc3)C2)n1.O=C(O)C(F)(F)F.O=C(O)C(F)(F)F [GSK2288359]

>  <TARGET_DESC>
JAK2(JH1domain-catalytic)

>  <CATEGORY>
satisfied

$$$$
>  <COMPOUND>
FC(F)(F)c1cc(Nc2nccc(-c3c(-c4ccc(Cl)cc4)nn4ncccc34)n2)ccc1Cl [GW829351]

>  <TARGET_DESC>
JAK2(JH1domain-catalytic)

>  <CATEGORY>
satisfied

$$$$
>  <COMPOUND>
C[C@H]1CC[C@@H](C(=O)Nc2ccccc2)CN1c1cc(-c2ccc3c(N)n[nH]c3c2)nc(N)n1 [GSK2283293]

>  <TARGET_DESC>
JAK2(JH1domain-catalytic)

>  <CATEGORY>
not satisfied

$$$$
>  <COMPOUND>
CNc1nccc(-c2c(-c3ccc(F)cc3)ncn2C2CCN(C)CC2)n1 [SB-222903]

>  <TARGET_DESC>
JAK2(JH1domain-catalytic)

>  <CATEGORY>
satisfied

$$$$
>  <COMPOUND>
COc1ccc(Nc2nccc(N3CCC(NC(=O)c4cccc(NC(C)=O)c4)C3)n2)cc1 (stereo not shown) [GSK1379732]

>  <TARGET_DESC>
JAK2(JH1domain-catalytic)

>  <CATEGORY>
satisfied

$$$$
>  <COMPOUND>
Nc1nc(-c2ccc3c(N)n[nH]c3c2)cc(N2CCCCC2)n1 [GSK2228768]

>  <TARGET_DESC>
JAK2(JH1domain-catalytic)

>  <CATEGORY>
not satisfied

$$$$
>  <COMPOUND>
Oc1ccc2ncnc(Nc3ccc(OCc4ccccc4)cc3)c2c1 [GI262866]

>  <TARGET_DESC>
JAK2(JH1domain-catalytic)

>  <CATEGORY>
not satisfied

$$$$
>  <COMPOUND>
O=C(Nc1ccccc1F)NC1CCN(c2ccnc(Nc3ccc(F)cc3)n2)C1 (stereo not shown) [GSK1379722]

>  <TARGET_DESC>
JAK2(JH1domain-catalytic)

>  <CATEGORY>
satisfied

$$$$

* * *

System: MAST1
Conditions: concentration: 1 μM, replicates: in singlicate; n = 1
TEST_READOUT: %Inh (%)

>  <COMPOUND>
Cc1cc(N2CCC(NS(=O)(=O)c3ccc(F)cc3)CC2)nc(Nc2cccc(C#N)c2)n1.O=C(O)C(F)(F)F [GSK1653537]

>  <REPORTED>
0

$$$$
>  <COMPOUND>
OCCOCCn1ccc2ncnc(Nc3ccc(Oc4cccc(Cl)c4)c(Cl)c3)c21

>  <REPORTED>
0

$$$$
>  <COMPOUND>
COc1cc2ncnc(Nc3ccc(OCc4ccccc4Br)c(Cl)c3)c2cc1OC.Cl [GI261590]

>  <REPORTED>
0

$$$$
>  <COMPOUND>
Cl.c1ccc(Cn2ncc3cc(Nc4ncnc5ccccc45)ccc32)cc1 [GW273749]

>  <REPORTED>
0

$$$$
>  <COMPOUND>
FC(F)(F)c1cc(Nc2nccc(-c3c(-c4ccc(Cl)cc4)nn4ncccc34)n2)ccc1Cl [GW829351]

>  <REPORTED>
20

$$$$
>  <COMPOUND>
O=C(Nc1ccccc1F)NC1CCN(c2ccnc(Nc3ccc(F)cc3)n2)C1 (centres unmarked) [GSK1379722]

>  <REPORTED>
14

$$$$
>  <COMPOUND>
C[C@H]1CC[C@@H](C(=O)Nc2ccccc2)CN1c1cc(-c2ccc3c(N)n[nH]c3c2)nc(N)n1 [GSK2283293]

>  <REPORTED>
0

$$$$
>  <COMPOUND>
COc1ccc(NC(=O)c2ccc(-c3cc(-c4nnc(C)o4)ccc3C)cc2)cc1 [GW595885]

>  <REPORTED>
5

$$$$
>  <COMPOUND>
CCC(CC)(CC)n1cnc2c(N)ncnc21 [SKF-97620]

>  <REPORTED>
32

$$$$
>  <COMPOUND>
Cl.O=S(=O)(c1cccc(F)c1)c1ccc(Nc2ncnc3cc(Br)sc23)cc1Cl [GSK306886]

>  <REPORTED>
0

$$$$
>  <COMPOUND>
CCc1nc(-c2cccc(C)c2)c(-c2ccnc(NC(=O)c3ccccc3)c2)s1

>  <REPORTED>
25

$$$$
>  <COMPOUND>
Cl.Cn1ccc(-c2cccc(Nc3ccnc4cc(-c5nccs5)ccc34)c2)n1 [GW525701]

>  <REPORTED>
12

$$$$
>  <COMPOUND>
Clc1ccc(-c2cc(-c3c[nH]nc3-c3ccccn3)ccn2)cc1 [GW681251]

>  <REPORTED>
0

$$$$
>  <COMPOUND>
Fc1cccc(COc2ccc(Nc3ncnc4sc(-c5ccc[nH]5)cc34)cc2Cl)c1 [GW707818]

>  <REPORTED>
1

$$$$

Values compiled from paper PMC5540273.
